These data points were gathered from ChEMBL document CHEMBL5252618.

# Test system: WI-38
# TEST_SUMMARY: Cytotoxicity against human WI-38 cells at 31.25 to 500 uM incubated for 24 hrs by CellTiter96 aqueous one solution based assay
# Format: toxicity, cell-based
# RECORDED_CONDITIONS: wi-38, 24 h, dose 31.25-500 µM
OBSERVATION_TYPE: Activity

                                   compound  observed_measurement
0  Cc1c(C)[n+](CCc2c[nH]c3ccccc23)cn1CCc1ccccc1             Non-Toxic
1          NCCc1c[nH]c2ccccc12 [TRYPTAMINE]             Non-Toxic
2  CCCc1c(C)[n+](CCc2c[nH]c3ccccc23)c(CCC)n1CCc1c[nH]c2ccccc12             Non-Toxic

---

# System: HT-1080
# TEST_SUMMARY: Cytotoxicity against human HT-1080 cells at 31.25 to 500 uM incubated for 24 hrs by CellTiter96 aqueous one solution based assay
# Format: functional, cell-based
# RECORDED_CONDITIONS: dose 31.25-500 µM
Calls of active or inactive are those of the source. No cut-off for these calls is given here.
Entry note: the call must match one of active, inactive

Inquiry: Name the outcome recorded for CCCc1n(CCc2c[nH]c3ccccc23)c(C)c(C)[n+]1CCc1c[nH]c2ccccc12 in the assay.
Reply text: inactive

Inquiry: State the result this test recorded for NCCc1c[nH]c2ccccc12 .
Reply text: inactive

Inquiry: Dear colleague, could you share the recorded outcome for Cc1c(C)[n+](CCc2c[nH]c3ccccc23)c(C)n1CCc1c[nH]c2ccccc12 when you have a moment?
Reply text: inactive

Inquiry: Please indicate how the test categorized Cc1c(C)[n+](CCc2c[nH]c3ccccc23)c(C)n1CCc1ccccc1 .
Reply text: inactive

Inquiry: Hi, sorry to bother you, what did the test record for CCCc1c(C)[n+](CCc2c[nH]c3ccccc23)c(CCC)n1CCc1c[nH]c2ccccc12 ?
Reply text: active

Inquiry: Hi, do you know how CCCC(=O)C(C)NCCc1c[nH]c2ccccc12 (stereo unspecified) came out in this test?
Reply text: inactive
